# System: HS 578T breast
# assay comment: NCI tumour cell line growth inhibition, 48 h
test readout: TGI

Example entries begin here.
O=c1c(-c2ccccc2Cl)coc2cc(F)ccc12 | > 100 µM
CC(C)(C)N1CC(OC(N)=O)C1 | > 100 µM
N#Cc1ccc(-c2nc3ccc(Cl)cc3[nH]2)cc1 | > 100 µM
O=C(/C=C/c1cccs1)c1cccc(C(=O)/C=C/c2cccs2)n1 | > 94.8 µM

Now for a further compound.
Look up and state reported TGI for N/C(=N\c1nc2ccccc2s1)NC(=O)Nc1ccccc1Cl
10.7 µM

* * *

# System: CAKI-1 renal
# assay comment: NCI tumour cell line growth inhibition, 48 h; in the data active = GI50 below about 0.43 µM; inactive = the rest
Your answer must be one of the following: T for active, F for inactive

Recorded results for 2 compounds are shown here.
CNC(=O)c1cncc(/C=C/c2c(C)cccc2C)c1 | F
Oc1ccc2ccccc2c1N=Nc1ccccn1 | T

Then there is this compound:
Short answer needed: outcome of this test for CN(C)Cc1cccc(CN(C)C)[c]1[Sn]([Br])([c]1ccccc1)[c]1ccccc1 ?
F

Value source: PubChem BioAssay (NCI)
